Tested on: U2OS
Assay: Multiplex assay against U2OS
Assay type: toxicity, cell-based
Details: human, 12 h, 1 µM, compound concentration 1 uM, replicate 1
ASSAY ENDPOINT: Population Mitotic Cells (%)
Give a bare numeral; the unit % is implied.

Some entries whose results are on file:
[[record]]
smiles_structure = "Cc1ccc2nc(NCCN)c3ncc(C)n3c2c1.O=C(O)C(F)(F)F.O=C(O)C(F)(F)F"
recorded_value = 70

[[record]]
smiles_structure = "CCn1c(=O)c(-c2ccc(-c3cncs3)cc2Cl)cc2cnc(Nc3ccc(N4CCN(C)CC4)cc3)nc21"
recorded_value = 42

[[record]]
smiles_structure = "COc1cc(N2CCN(C)CC2)ccc1Nc1ncc2c(n1)N(C)c1ccccc1C(=O)N2C"
recorded_value = 66

[[record]]
smiles_structure = "O=C(Nc1ccc(-c2ccnc(Nc3ccc(N4CCOCC4)cc3)n2)cc1)[C@@H]1CCCN1"
recorded_value = 55


The measured Population Mitotic Cells (%) associated with CCCS(=O)(=O)c1nc(NC2CC2)cc(-c2ccc3c(ccn3C3CC(C)(C)NC(C)(C)C3)c2)n1 reads 60

Measured Population Mitotic Cells (%) of O=C(Nc1ccc(-n2nc(-c3cccnc3)cc2C(F)(F)F)cn1)c1ccc(-c2ccccc2)c(F)c1 : 36

Kindly note the recorded Population Mitotic Cells (%) for CCN1CCN(c2ccc(Nc3cc(N(C)C(=O)Nc4c(Cl)c(OC)cc(OC)c4Cl)ncn3)cc2)CC1 , which is 66

Briefly, Population Mitotic Cells (%) measured for C=C1/C(=C\C=C2/CCC[C@]3(C)[C@@H]([C@H](C)/C=C/[C@H](C)C(C)C)CC[C@@H]23)C[C@@H](O)C[C@@H]1O : 61

# Population Mitotic Cells (%) of CCc1cccc(CC)c1NC(=O)c1nn(C)c2c1CCc1cnc(Nc3ccc(N4CCN(C)CC4)cc3OC)nc1-2 = 29

Query C=CCn1c(=O)c2cnc(Nc3ccc(N4CCN(C)CC4)cc3)nc2n1-c1cccc(C(C)(C)O)n1 yields Population Mitotic Cells (%) of 56

Provenance of the data: ChEMBL document CHEMBL4689842
